- System: T47D cells
- assay text: cells
- experimental context: Homo sapiens, 72 h, read-out: IC50 (microM) (T47D)
measured endpoint: pIC50
Interpret pIC50 as the negative base-10 log of the concentration measured in mol/L.

What value of measured pIC50 is listed for NC1CCCC(NC(=O)c2ccc(O)c3[nH]c(C4CC5CCC4C5)nc23)C1 (stereo not shown) ?
5.04

What value of measured pIC50 is listed for O=C(NC[C@@H]1CCCNC1)c1ccc(O)c2[nH]c(Cc3cccs3)nc12 ?
4.62

What value of measured pIC50 is listed for O=C(N[C@H]1CCCNC1)c1ccc(O)c2[nH]c(C3CCCC3)nc12 ?
5.59

What value of measured pIC50 is listed for O=C(NCC1CCCCN1)c1ccc(O)c2[nH]c(-c3ccccc3)nc12 (stereo not shown) ?
4.82
